# Test system: PC-3 prostrate cell adenocarcinoma
# Experiment Notes: Relative colony forming efficiency (Example 17, Table 13)
# Assay type: cell-based, human
# Condition Set: averages of 2-8 determinations
Oligonucleotides are written 5' to 3', each unit as a sugar letter and its base; * is a phosphorothioate linkage, no mark a phosphodiester; rarer units and linkages stand in square brackets, end groups in braces. Plain capitals give the bases only. d = 2'-deoxy (DNA)
Measured Reduced relative colony forming efficiency, PC-3 (% inhibition of colony forming ability) values are reported for all entries that follow.
Assay Endpoint: Reduced relative colony forming efficiency, PC-3 (% inhibition of colony forming ability)

{"Substance": "TCCTCGGCGGTCCAAA (antisense dT*dC*dC*dT*dC*dG*dG*dC*dG*dG*dT*dC*dC*dA*dA*dA) [AS-II-496-16]", "Result": "88.84%"}
{"Substance": "TTGTGTACCAGGTGTTTGAA (antisense dT*dT*dG*dT*dG*dT*dA*dC*dC*dA*dG*dG*dT*dG*dT*dT*dT*dG*dA*dA) [AS-II-1023-20]", "Result": "87.63%"}
{"Substance": "AS-II-218220 (antisense dC*dG*dT*dT*dG*dA*dG*dG*dA*dA*dA*dA*dT*dA*dC*dA*dG*dT*dG*dA)", "Result": "85.91%"}
{"Substance": "TGCCTCCGACCCTTCCCA (antisense dT*dG*dC*dC*dT*dC*dC*dG*dA*dC*dC*dC*dT*dT*dC*dC*dC*dA) [AS-II-16-18]", "Result": "89.48%"}
{"Substance": "CGCGCGCTCCCGGCCCTTCC (listed as DNA, chemistry not fully specified) [AS-II-75-20]", "Result": "83.46%"}
{"Substance": "G*CG*AAG*CAG*AGC*GAG*CAGC*C (antisense dG*dCdG*dAdAdG*dCdAdG*dAdGdC*dGdAdG*dCdAdGdC*dC) [AS-II-163-20]", "Result": "7.14%"}
{"Substance": "GGCATCAGTCCTCGTTTCTT (antisense dG*dG*dC*dA*dT*dC*dA*dG*dT*dC*dC*dT*dC*dG*dT*dT*dT*dC*dT*dT) [AS-II-933-20]", "Result": "36.91%"}
{"Substance": "AS-II-1560.20 (antisense dG*dT*dA*dA*dG*dT*dC*dA*dC*dA*dG*dC*dC*dA*dG*dC*dC*dA*dG*dG)", "Result": "78.37%"}
{"Substance": "AACTTCTTGGCTAAATCGCT (antisense dA*dA*dC*dT*dT*dC*dT*dT*dG*dG*dC*dT*dA*dA*dA*dT*dC*dG*dC*dT) [AS-II-634-20]", "Result": "77.86%"}
{"Substance": "TTAGTCTTTCCTTCCAGTGA (antisense dT*dT*dA*dG*dT*dC*dT*dT*dT*dC*dC*dT*dT*dC*dC*dA*dG*dT*dG*dA) [AS-II-1254-20]", "Result": "73.31%"}
{"Substance": "G*CC*TCCG*ACC*CTTC*CC*ATT*G (antisense dG*dCdC*dTdCdCdG*dAdCdC*dCdTdTdC*dCdC*dAdTdT*dG) [AS-II-13-20]", "Result": "52.38%"}
{"Substance": "CCCCTTCAGCGGCG (antisense dC*dC*dC*dC*dT*dT*dC*dA*dG*dC*dG*dG*dC*dG) [AS-II-253-14]", "Result": "67.26%"}
{"Substance": "GAAGCCATAGAAACAGCGGG (antisense dG*dA*dA*dG*dC*dC*dA*dT*dA*dG*dA*dA*dA*dC*dA*dG*dC*dG*dG*dG) [AS-II-667-20]", "Result": "91.8%"}
